Observation Type: melting point (°C)

(a) O=C(NCCc1nc(-c2ccc(N3CCCC3)cc2)c[nH]1)OCCCC(F)(F)F [Example 385]
(b) Fc1ccc(-c2c[nH]c(C(CCCC(F)(F)F)NC3CCCCC3)n2)cc1 (racemic) [Example 136]
Task item: Decide: a or b , by lowest recorded melting point. Pick one; state its label.
Reply: a
(a: 148.3 °C, b: 220 °C)

* * *

Counter-ions that a name gives are not always drawn.
Observation Type: melting point

Some compounds with recorded melting point:
Cn1cc(-c2ccc(-c3ccccc3)cc2)nc1CN (as salt: hydrochloride) = 279 to 280 °C
O=C(NCCc1nc(-c2ccc(-c3ccc(Br)cc3)cc2)c[nH]1)OCC1CCC1 (as salt: hydrochloride) = 214 to 215 °C
CC(C)(C)OC(=O)NCc1nc(-c2ccccc2)c[nH]1 = 170 to 172 °C

Task item: Please list melting point recorded for the compound CC(C)(C)OC(=O)NCCc1nc(-c2ccc(-c3ccccc3)cc2)c[nH]1
Reply: 140 to 142 °C

Task item: Return the recorded melting point value; entry: Fc1cccc(-c2c[nH]c([C@@H](NC3CCCCC3)C3CCCCC3)n2)c1 (as salt: hydrochloride)
Reply: 213.9 °C

Task item: Read the entry CN(Cc1ccccc1)Cc1nc(-c2ccc(-c3ccccc3)cc2)c[nH]1 and write its reported melting point.
Reply: 106 to 108 °C

Task item: Please give the documented melting point of CCCCOC(=O)NCCc1nc(-c2ccc(C(F)(F)F)cc2)c[nH]1
Reply: 104 to 105 °C

Task item: Give the reported melting point for this compound. CC(C)CCCC(NC1CCCCC1)c1nc(-c2cccc(Br)c2)c[nH]1 (centres unmarked) [Example 37]
Reply: 236 to 238 °C

* * *

Measured melting point, listed per entry for reference.
Where a name gives a salt, the structure may show the parent alone.

Task item: Consider the molecule c1cc(C2CCCCC2)ccc1-c1c[nH]c([C@@H](NC2CCC2)C2CCCCC2)n1 (as salt: hydrochloride) . State its measured melting point.
Reply: 190 to 192 °C

Task item: Supply recorded melting point for c1ccc(CNCc2nc(-c3ccccc3)cn2Cc2ccccc2)cc1 here.
Reply: 60 to 62 °C

Task item: # return recorded melting point for input N[C@H](CCc1ccccc1)c1nc(-c2ccc(-c3ccccc3)cc2)c[nH]1 (as salt: hydrochloride)
Reply: 215 to 218 °C

Task item: Annotate the molecule CC(C)(C)NC(=O)NCCc1nc(-c2ccc(-c3ccccc3)cc2)c[nH]1 with its measured melting point.
Reply: 195 to 196 °C

* * *

Counter-ions that a name gives are not always drawn.
Observation Type: melting point

Worked set:
CNCc1nc(-c2ccccc2)c(-c2ccccc2)[nH]1 (as salt: hydrochloride) [Example 162] = 198 to 200 °C
CCCCOC(=O)NCCc1nc(-c2ccc(-c3ccc(C#N)cc3)cc2)c[nH]1 [Example 451] = 147 °C
CCCCOC(=O)NCCc1nc(-c2ccc(-c3ccc(C(F)(F)F)cc3)cc2)c[nH]1 [Example 452] = 168.5 °C
COc1ccc(-c2c[nH]c([C@@H](N)C3CCCCC3)n2)cc1F (as salt: hydrochloride) [Example 259] = 225 to 227 °C

Next, consider the following compound.
Task item: Check the records and state melting point for FC(F)(F)c1cc(-c2c[nH]c([C@@H](NC3CCCCC3)C3CCCCC3)n2)cc(C(F)(F)F)c1 [Example 284]
Reply: 180 to 182 °C

* * *

Structures can show the parent of a compound that is named as a salt.
Measured melting point accompanies every entry in the list below.

// below: answered compounds
CCCCOC(=O)NCCc1nc(-c2ccc(N3CCCC3)cc2)c[nH]1 (as salt: hydrochloride) [Example 317] = 165 to 166 °C
FC(F)(F)c1cccc(-c2c[nH]c([C@@H](NCC3CCCCC3)C3CCCCC3)n2)c1 (as salt: hydrochloride) [Example 307] = 198 to 200 °C
c1ccc(CC[C@@H](NCc2ccccc2)c2nc(-c3ccccc3)c[nH]2)cc1 = 142 to 144 °C
CCCCOC(=O)NCCc1nc(-c2ccc(-c3cc(F)cc(F)c3)cc2)c[nH]1 = 111.1 °C
CCCCOC(=O)NCCc1nc(-c2ccc(F)cc2)c[nH]1 = 87 °C

Task item: Output melting point of c1ccc(CN[C@H](Cc2csc3ccccc23)c2nc(-c3ccccc3)c[nH]2)cc1
Reply: 152 to 154 °C

Task item: State its melting point: CCN(CC)c1ccc(-c2c[nH]c([C@@H](NCC3CCCCC3)C3CCCCC3)n2)cc1 (as salt: hydrochloride)
Reply: 204 to 206 °C

Task item: Consider the compound N[C@H](c1nc(-c2ccccc2)c[nH]1)C1CCCCC1 (as salt: hydrochloride) . State its measured melting point.
Reply: 208 to 210 °C

Task item: Quickly give me recorded melting point for CCCCC(NC(=O)OC(C)(C)C)c1nc(-c2ccc(-c3ccccc3)cc2)c[nH]1 (racemic)
Reply: 172 to 176 °C

Task item: Complete the entry with melting point for CC(C)(C)OC(=O)NC(C)(C)c1nc(-c2ccccc2)c[nH]1
Reply: 130 to 132 °C

Task item: Consider the compound CCCCCCC(NC1CCCCC1)c1nc(-c2ccccc2)c[nH]1 (racemic) and give its recorded melting point.
Reply: 68 to 70 °C

Task item: # return recorded melting point for entry c1ccc(OCCN[C@H](Cc2c[nH]c3ccccc23)c2nc(-c3ccccc3)cs2)cc1
Reply: 124 to 126 °C

Task item: Query melting point for CCC[C@@H](N)c1nc(-c2ccccc2)c[nH]1 (as salt: hydrochloride)
Reply: 182 to 184 °C

Task item: Assign melting point to the following record: CCCCOC(=O)NCCc1nc(-c2ccc(Br)cc2)c[nH]1
Reply: 99 to 100 °C

Task item: # return recorded melting point for input CCCCCC(NCc1ccccc1)c1nc(-c2ccccc2)c[nH]1 (racemic)
Reply: 192 to 194 °C

Task item: Write down melting point measured for item CCCCCCNC(CCCCCC)c1nc(-c2ccccc2)c[nH]1 (racemic)
Reply: 140 to 142 °C

* * *

Observation Type: melting point (°C)

CCCCOC(=O)NCCc1nc(-c2ccc(-c3ccccc3)cc2)c[nH]1 = 136.7
CCCCNC(=O)NCCc1nc(-c2ccc(-c3ccccc3)cc2)c[nH]1 = 178
CCCCOC(=O)NCCc1nc(-c2ccc(-c3cccc(F)c3)cc2)c[nH]1 = 141.5

* * *

Where a name gives a salt, the structure may show the parent alone.
Observation Type: melting point

The following compounds have reported results that may help.
CC(C)(C)OC(=O)NCc1nc(-c2ccccc2)c(-c2ccccc2)[nH]1 = 144 to 146 °C
Fc1ccc(-c2c[nH]c([C@H](NCC3CCCCC3)C3CCCCC3)n2)cc1 (as salt: hydrochloride) = 188.2 °C
C[C@@H](N)c1nc(-c2ccccc2)c[nH]1 (as salt: hydrochloride) = 178 to 181 °C

Task item: Please supply the value of reported melting point for the item CC(C)COC(=O)NCCc1nc(-c2ccc(-c3ccccc3)cc2)c[nH]1
Reply: 134 to 135 °C

* * *

Counter-ions that a name gives are not always drawn.
# Lookup of reported melting point keyed by entry

# count of solved cases: 3
CC(C)(C)CCOC(=O)NCCc1nc(-c2ccc(N3CCCC3)cc2)c[nH]1 = 119.2 °C
CC(C)(C)OC(=O)N[C@H](CC1CCCCC1)c1nc(-c2ccc(-c3ccccc3)cc2)c[nH]1 = 112 to 114 °C
NCc1nc(-c2ccc(-c3ccccc3)cc2)c[nH]1 (as salt: hydrochloride) = 240 to 242 °C

Task item: // fetch melting point given entry Fc1ccc(-c2c[nH]c(C(Cc3c[nH]c4ccc(F)cc34)NC3CCC3)n2)cc1 (racemic) (as salt: hydrochloride)
Reply: 180 to 190 °C

* * *

Counter-ions that a name gives are not always drawn.
Observation Type: melting point

Consider the reported melting point for these compounds:
c1ccc(CN[C@H](Cc2c[nH]c3ccccc23)c2nc(-c3ccccc3)cs2)cc1 [Example 100] = 134 to 136 °C
Fc1ccc2c(CC(NCc3ccccc3)c3nc(-c4ccccc4)c[nH]3)c[nH]c2c1 (racemic) [Example 105] = 98 to 100 °C
CC[C@H](N)c1nc(-c2ccccc2)c(-c2ccccc2)[nH]1 (as salt: hydrochloride) [Example 199] = 224 to 226 °C
CC(C)(C)COC(=O)NCCc1nc(-c2ccc(-c3ccccc3)cc2)c[nH]1 [Example 203] = 162 to 164 °C
Fc1ccc(-c2c[nH]c([C@@H](NC3CCC3)C3CCCCC3)n2)cc1F [Example 262] = 200 to 202 °C

Task item: Please indicate melting point recorded for CCCCCCC(NCc1ccccc1)c1nc(-c2ccc(Cl)c(Cl)c2)c[nH]1 (racemic) [Example 77]
Reply: 192 to 194 °C

Task item: Name the recorded melting point of the compound listed here: Cn1cc(CC(N)c2nc(-c3ccccc3)c[nH]2)c2ccccc21 (racemic) (as salt: hydrochloride) [Example 92]
Reply: 110 to 114 °C

Task item: Report melting point, nothing else, for this compound: CC(C)(NC(=O)OCc1ccccc1)c1nc(-c2ccc(-c3ccccc3)cc2)c[nH]1 [Example 247]
Reply: 148 to 152 °C
